pKi: −log10 of the molar value.
Record: compiled pKi on Cathepsin S (Homo sapiens, UniProt P25774) from multiple reports.
Sequence (P25774 whole entry): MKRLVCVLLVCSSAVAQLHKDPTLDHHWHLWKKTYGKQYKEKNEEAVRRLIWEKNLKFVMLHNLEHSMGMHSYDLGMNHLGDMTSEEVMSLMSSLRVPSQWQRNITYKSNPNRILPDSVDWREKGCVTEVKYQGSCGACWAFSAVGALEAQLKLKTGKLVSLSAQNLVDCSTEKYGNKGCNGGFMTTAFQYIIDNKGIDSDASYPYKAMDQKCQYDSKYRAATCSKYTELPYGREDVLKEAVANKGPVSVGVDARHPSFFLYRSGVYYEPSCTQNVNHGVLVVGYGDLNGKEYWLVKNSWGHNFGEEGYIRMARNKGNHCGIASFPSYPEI
measured_parameter: pKi

1) CC(C)(C)C[C@H](NC(=O)N1CCOCC1)C(=O)NCCNc1ccc(OC(F)(F)F)cc1 : 6.66
2) CC(C)C[C@H](NC(=O)OCc1ccccc1)C(=O)NCC(=O)CNC(=O)[C@H](CC(C)C)NC(=O)OCc1ccccc1 : 6.05
3) C[C@@H](CNc1ccc(OC(F)(F)F)cc1)NC(=O)[C@H](CC1CCCCC1)NC(=O)C1CCOCC1 : 7.92
4) CC(C)(C)OC(=O)N[C@@H](Cc1ccc(Br)cc1)C(=O)NCC#N : 6.72
5) CC(C)C[C@H](NC(=O)c1cc2ccccc2o1)C(=O)N[C@@H](C)C(=O)CNS(=O)(=O)c1ccccn1 : 7.70
6) CC(C)C[C@H](NC(=O)c1cc2ccccc2o1)C(=O)N[C@H]1C[C@H](C)CN(S(=O)(=O)c2ccccn2)CC1=O : 8.24
